SYSTEM TESTED: T1, PrimPol1-354 (polymerase domain, wild type) (human, UniProt Q96LW4 1-354)
T1 sequence: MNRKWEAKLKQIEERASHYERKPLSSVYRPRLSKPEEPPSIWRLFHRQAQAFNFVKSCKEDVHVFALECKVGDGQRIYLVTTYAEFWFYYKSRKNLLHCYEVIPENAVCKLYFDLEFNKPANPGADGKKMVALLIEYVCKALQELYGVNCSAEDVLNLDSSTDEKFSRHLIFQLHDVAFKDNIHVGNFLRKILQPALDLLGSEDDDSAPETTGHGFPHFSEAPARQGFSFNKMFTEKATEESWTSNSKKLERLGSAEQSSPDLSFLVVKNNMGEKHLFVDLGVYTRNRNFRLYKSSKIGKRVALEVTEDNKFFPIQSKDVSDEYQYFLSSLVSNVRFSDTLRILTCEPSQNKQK
PROTOCOL DETAILS: EMSA; 10 mM Mg2+; text gives 0.67 uM, Figure 5 legend 0.69 uM; EMSA: 60 nM DNA, 10 mM Bis-Tris-Propane-HCl pH 7.0, 10 mM MgCl2, 1 mM DTT, 25 C, 60 min; 5% polyacrylamide gel in 0.5x TBE
EXPERIMENTAL SETUP: protein: recombinant; label: 5'-Hex on strand 1 (HP-20); 20 bp duplex, 5' overhang 30 nt on template strand (S12), other end blunt
OBSERVED PROPERTY: Kd (nM)

INSERT INTO results (binder, unit_tag, readout_number) VALUES
  ('Overhanging DNA substrate (HP-20 primer / ND-50 TemplateTT) (dsDNA) DNA 1: TGTCGTCTGTTCGGTCGTTC DNA 2: CGCGCAGGGCGCACAACAGCCTTGAAGACCGAACGACCGAACAGACGACA', 'nM', 690);
